- System: CCRF-CEM
- assay: NCI 60 five-dose screen CCRF-CEM
- Assay type: cell-based
- condition: Homo sapiens
Each entry below carries its reported pIC50.
Scale for pIC50: -log10 of concentration given in mol/L; no unit attached.

Known pIC50 results, listed for orientation:
# lookup: pIC50 of O=c1ccc(Cn2c(C(F)(F)F)cc3c(Cl)ncnc32)c[nH]1 [NUCC-0226698] 5.18

Any idea what pIC50 was measured for Fc1ccc(N2CC(Cn3c(C(F)(F)F)cc4c(Cl)ncnc43)C2)c(F)c1 [NUCC-0226695] ? 4.38

Now, please, on to the next compound.
Would you kindly share the measured pIC50 for COc1cc(Cn2c(C(F)(F)F)cc3c(Cl)ncnc32)ccn1 [NUCC-0226694] ? 5.27
